Data origin: ChEMBL document CHEMBL1687710

In this section, each of the compounds is paired with its reported CC50 at 120 h.
methodSummary: Cytotoxicity against human MT4 cells after 5 days by MTS assay
Type: cell-based
protocolConditions: read-out: TC50
reportedMetric: CC50 at 120 h (µM)

structure	reportedMetric	measurementUnits	resultComparator	endpointResult
COC(=O)c1c(N)ncn1-c1ccc(C)cc1	CC50 at 120 h	µM	>	100
CCc1c(C(=O)Nc2ccccc2)c(C)nc2sc(C(N)=O)c(N)c12	CC50 at 120 h	µM	>	100
CC(=O)Nc1cccc2n[se]nc12	CC50 at 120 h	µM	>	100
CS(=O)(=O)c1ncc(-c2ccc(Br)cc2)cn1	CC50 at 120 h	µM	=	10
CCc1c(C)nc2sc(C(N)=O)c(N)c2c1C	CC50 at 120 h	µM	=	32
COc1ccc2cc3c(N)n[nH]c3nc2c1	CC50 at 120 h	µM	=	20
COc1ccc2nc(C(F)(F)F)c(C#N)c(N)c2c1	CC50 at 120 h	µM	=	28
COc1cccc(NC(=O)c2cc(Cl)nnc2Cl)c1	CC50 at 120 h	µM	=	50
Cc1ccc(NC(=O)c2sc(Cl)nc2C(F)(F)F)cc1	CC50 at 120 h	µM	=	18
CCOC(=O)c1c(N)ncn1-c1ccccc1	CC50 at 120 h	µM	>	100
